# Lookup of reported self-cleavage kobs at 2500 uM GlcN6P keyed by entry
B1: glmS ribozyme (parent)
chain: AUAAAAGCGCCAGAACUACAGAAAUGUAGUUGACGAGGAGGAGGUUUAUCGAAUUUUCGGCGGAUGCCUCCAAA

# Variants of: B1
# PROTOCOL TEXT: self-cleavage kobs at 2500 uM GlcN6P; higher = faster cleavage; RNA array
# CONDITION INFO: with glucosamine-6-phosphate
Fewer inactive variants are shown than the library holds.
Lab book: enter the figure in s⁻¹, no units written.

Lab note: measured self-cleavage kobs at 2500 uM GlcN6P of AUAAAAGCGCCAGAACUACAGAAAUGUAGGUAACGAGGAGGAGGUUUAGCGAAUUUUCGGCGGAUGCCUCCAAA [U30G G32A U49G] was 6.89e-05

New cases:
Lab note: measured self-cleavage kobs at 2500 uM GlcN6P of AUAAAAGCGCCAGAACUACAGAAAUGUAGUUGACGAGGAGGAGGUUUAUGGAAUUUUCGGCGGAUGCCUCCAAA [C50G] was 0.000399

Lab note: measured self-cleavage kobs at 2500 uM GlcN6P of UGGAUAGCGCCAGAACUACAGAAAUGUAGUUGACGAGGAGGAGGUUUAUCGAAUUUUCGGCGGAUGCCUCCAAA [A1U U2G A3G A5U] was 0.006

Lab note: measured self-cleavage kobs at 2500 uM GlcN6P of AUAAAAGCGCCAGAACUACAGAAAUGUAGAUGACGAGGAGGAGGUUUAUCGAAUUUUCGGCGGAGGCCUCCAAA [U30A U65G] was 0.000614

Lab note: measured self-cleavage kobs at 2500 uM GlcN6P of AUAAAAGCGCCAGAAUUACAGAAAUGUAGUUGACGAGGAGGAGGUUUAUCGAAUUUUCGGCGGAUGCCUCCAAA [C16U] was 0.0272

Lab note: measured self-cleavage kobs at 2500 uM GlcN6P of AUAAAAGCGCCAGAAAUACAGAAAUGUAGUUGACGAGGAGGAGGUUUAUCGACUUUUCGGCGGAUGCCUCCAAA [C16A A53C] was 0.000164
